# target_of_assay: Muscle and erythrocyte calpain
# experimental_details: In Vitro Assay of Calpain (fluorometric, t-Boc-Val-Leu-Lys-7-amido-4-methyl-coumarin substrate)
# study_conditions: In Vitro Calpain Inhibition
Task for the reader: assign each of the following molecules its reported log10 of Ki.
Please be aware that the numbers have been log10-transformed from Ki in µM.

Prompt: For the molecule shown here, CCOC(=O)CCC(=O)O[C@@H]1OCN(C(=O)[C@@H](NC(=O)OCc2ccccc2)C(C)C)[C@H]1Cc1ccccc1 , give the reported log10 of Ki.
Response: -0.15

Prompt: Item: CC(C)[C@@H](C(=O)N1CO[C@@H](O)[C@@H]1Cc1ccccc1)N(C)C(=O)OCc1ccccc1
Response: 0.32

Prompt: And then COc1ccc(CC(=O)O[C@@H]2OCN(C(=O)[C@@H](NC(=O)OCc3ccccc3)C(C)C)[C@H]2Cc2ccccc2)cc1 , what is it?
Response: 0.04

Prompt: CC(C)[C@H](NC(=O)OCc1ccccc1)C(=O)N1CO[C@@H](OC(=O)N2CCOCC2)[C@@H]1Cc1ccccc1 , same question.
Response: 0.30

Prompt: Do the same for CCCCC(CC)C(=O)O[C@@H]1OCN(C(=O)[C@@H](NC(=O)OCc2ccccc2)C(C)C)[C@H]1Cc1ccccc1 (some centres unmarked) please
Response: -0.52

Prompt: Same for CC(=O)O[C@@H]1OCN(C(=O)[C@@H](NC(=O)OCc2ccccc2)C(C)C)[C@H]1Cc1ccccc1
Response: 0.16

Prompt: Next up: CC(C)[C@H](NC(=O)OCc1ccccc1)C(=O)N1CO[C@@H](O)[C@@H]1Cc1ccccc1
Response: -1.48

Prompt: Please do the same for CCCC(=O)O[C@@H]1OCN(C(=O)[C@@H](NC(=O)OCc2ccccc2)C(C)C)[C@H]1Cc1ccccc1 as well.
Response: 0.11
